Record form. Attribute: IC50. Fill in for each entry.
system: MOLM-13 cells; assay: Long term proliferation assay, InCell read-out; type: cell-based, human; conditions: Homo sapiens, MOLM-13, 264 h, MOLM-13, Day 11, read-out: Day 11 IC50
Give bare numbers, in nM.

C=CC(=O)NC1CCCN(Cc2ccnc(C(=O)Nc3ccc(-c4cc5c(N6CCOCC6)ncnc5[nH]4)cc3)c2)C1 (centres unmarked) [Compound 10] = 90

Now look at this entry.
stdin: Param readout= IC50; system= MOLM-13 cells; entry= CN(C)C/C=C/C(=O)Nc1ccc(CC(=O)Nc2ccc(-c3cc4c(N5CCOCC5)ncnc4[nH]3)cc2)cc1 [Compound 5] ; returns value.
stdout: 380
